Reported switch fluorescence ratio is given for each of the following sequences.
Tested on: ATP;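 also: ATP exposure 15 min at 22 °C before imaging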
TEST METHOD NOTES: switch fluorescence ratio, 500 uM ATP over buffer (Cy3 cluster intensity, sum of 5 cycles each) (fold (ratio)); higher = stronger signal-on switching upon ATP binding; sequences stand for … in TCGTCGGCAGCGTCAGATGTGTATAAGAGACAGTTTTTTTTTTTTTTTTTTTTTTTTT…TC
EXPERIMENTAL SETUP: aptamer strand: ATP DNA aptamer (quencher-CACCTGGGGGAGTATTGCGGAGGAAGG + anchor), 100 nM annealed; ATP concentration: 500 uM
Number only, please.

>>> obs_value("GATTTAGGTA")
0.968
>>> obs_value("TACAGGGATC")
0.993
>>> obs_value("TGGGACGCCT")
1.06
>>> obs_value("TGGCACAGTG")
0.996
>>> obs_value("TGGTATGGTT")
0.996
>>> obs_value("AATTTGCAGT")
1
>>> obs_value("ACTAGGTATT")
1.03
>>> obs_value("CAGGCCTAGG")
0.946
>>> obs_value("GAAAGTGTGT")
1
>>> obs_value("TACAGGTCGG")
1

Query :: Would you mind telling me what switch fluorescence ratio value was observed for CTCCAAGTGA ?
Result :: 1.32

Query :: Would you mind telling me what switch fluorescence ratio value was observed for TTTTTTCGCT ?
Result :: 1.02

Query :: Would you mind telling me what switch fluorescence ratio value was observed for GAATGGGATA ?
Result :: 1.04
